Origin of values: patent US20110136788A1

molecular target: rat TGR5 (Rattus norvegicus, UniProt Q80T02); construct: expressed in transfected cells; host or cells: CHO cells; experiment: cAMP production in CHO cell line expressing rat TGR5 (CHO-rTGR5); format: cell-based; details: CHO-rTGR5, cAMP production; read-out: EC50 value
Sequence (Q80T02 whole entry): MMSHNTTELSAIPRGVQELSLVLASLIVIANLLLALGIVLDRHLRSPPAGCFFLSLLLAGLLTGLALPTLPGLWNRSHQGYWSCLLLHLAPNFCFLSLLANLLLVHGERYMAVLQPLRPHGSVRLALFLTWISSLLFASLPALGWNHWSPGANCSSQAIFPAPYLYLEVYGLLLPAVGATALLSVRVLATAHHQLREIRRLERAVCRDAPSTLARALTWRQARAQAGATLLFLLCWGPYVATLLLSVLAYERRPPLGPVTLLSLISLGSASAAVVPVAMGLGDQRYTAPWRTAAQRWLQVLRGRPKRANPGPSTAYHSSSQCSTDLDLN
pEC50: −log10 of the molar value.
Observed Property: pEC50

1. CN1C(=O)C(C)(C)N(C(=O)COc2cccc3cnccc23)c2ccc(F)cc21 [Compound C]
2. O=C1COc2nccc(-c3ccccc3O)c2CN1Cc1cc(C(F)(F)F)cc(C(F)(F)F)c1 [Compound E]
3. CC(c1cc(C(F)(F)F)cc(C(F)(F)F)c1)N1Cc2c(-c3ccccc3F)ccnc2OCC1=O (stereo not shown) [Compound B]
4. CC(c1cc(C(F)(F)F)cc(C(F)(F)F)c1)N1CCOc2nccc(-c3ccccc3)c2C1.Cl (stereo not shown) [Compound D, hydrochloride]
# input Which order do these items take when sorted by rising pEC50? List them. Please reply with the labels ordered as requested. Many thanks.
# output 2, 4, 1, 3

====

target: human TGR5 (Homo sapiens, UniProt Q8TDU6); construct: expressed in transfected cells; host or cells: CHO cells; assay: cAMP production in CHO cell line expressing human TGR5 (CHO-hTGR5); type: cell-based; conditions: CHO-hTGR5, cAMP production; read-out: EC50 value
Sequence (Q8TDU6 whole entry): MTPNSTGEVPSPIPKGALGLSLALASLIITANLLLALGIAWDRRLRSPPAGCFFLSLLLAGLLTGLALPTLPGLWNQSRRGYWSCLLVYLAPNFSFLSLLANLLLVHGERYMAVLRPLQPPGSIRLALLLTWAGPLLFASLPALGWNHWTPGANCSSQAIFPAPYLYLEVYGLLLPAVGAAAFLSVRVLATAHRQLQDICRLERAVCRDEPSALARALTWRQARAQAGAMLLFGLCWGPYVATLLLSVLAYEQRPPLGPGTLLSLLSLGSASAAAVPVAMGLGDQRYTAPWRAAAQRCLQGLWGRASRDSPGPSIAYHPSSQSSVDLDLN
pEC50: −log10 of the molar value.
Observed Property: pEC50

A. CC(c1cc(C(F)(F)F)cc(C(F)(F)F)c1)N1CCOc2nccc(-c3ccccc3)c2C1.Cl (stereo not shown) [Compound D, hydrochloride]
B. CC(c1cc(C(F)(F)F)cc(C(F)(F)F)c1)N1Cc2c(-c3ccccc3F)ccnc2OCC1=O (stereo not shown)
# input Between A and B , which one shows the larger pEC50 value? Selection: enter the item's label.
# output B
(B: 9.21, A: 8.80)

A. CN1C(=O)C(C)(C)N(C(=O)COc2cccc3cnccc23)c2ccc(F)cc21
B. O=C1COc2nccc(-c3ccccc3O)c2CN1Cc1cc(C(F)(F)F)cc(C(F)(F)F)c1
# input When A and B are compared, which has the higher number for pEC50? Write down the label of the entry you select.
# output A

====

target: rat TGR5 (Rattus norvegicus, UniProt Q80T02); construct: expressed in transfected cells; host or cells: CHO cells; test: cAMP production in CHO cell line expressing rat TGR5 (CHO-rTGR5); format: cell-based; conditions: Table 8, rat TGR5; read-out: EC50 (M) Rat
Observed Property: EC50 (M)

1. CN1C(=O)C(C)(C)N(C(=O)COc2cccc3cnccc23)c2ccc(F)cc21 [Compound C]
2. CC(c1cc(C(F)(F)F)cc(C(F)(F)F)c1)N1CCOc2nccc(-c3ccccc3)c2C1.Cl (centres unmarked) [Compound D, hydrochloride]
# input // pick min by EC50: 1 , 2 Output the label that corresponds to your choice.
# output 1

====

Target: human TGR5 (Homo sapiens, UniProt Q8TDU6)
Construct: expressed in transfected cells; host or cells: CHO cells
Test: cAMP production in CHO cell line expressing human TGR5 (CHO-hTGR5)
Type: cell-based
Settings: Table 8, human TGR5; read-out: EC50 (M) Human
Method: [The procedure below names another species; the source lists this species under the same test.] CHO cell line expressing mouse TGR5 (CHO-mTGR5), which was prepared by a method known per se and using the mouse TGR5 expression vector, was suspended in an assay medium (Hanks' Balanced Salt Solution (Invitrogen) added with 0.2 mM isobutylmethylxanthine and 0.1% bovine albumin) at 1×10^7 cells/ml and stood at room temperature for 30 min. […] The EC50 value was calculated by using GraphPad PRISM (GraphPad software) from the amount of cAMP produced by each compound.
Observed Property: EC50 (M)
The response must be a number in M with no trailing unit.

# input Consider the compound `O=C1COc2nccc(-c3ccccc3O)c2CN1Cc1cc(C(F)(F)F)cc(C(F)(F)F)c1` and give its recorded EC50.
# output 2.4e-07

====

biological target: mouse TGR5 (Mus musculus); assay: cAMP production in CHO cell line expressing mouse TGR5 (CHO-mTGR5)
Sequence (Q80SS6 whole entry): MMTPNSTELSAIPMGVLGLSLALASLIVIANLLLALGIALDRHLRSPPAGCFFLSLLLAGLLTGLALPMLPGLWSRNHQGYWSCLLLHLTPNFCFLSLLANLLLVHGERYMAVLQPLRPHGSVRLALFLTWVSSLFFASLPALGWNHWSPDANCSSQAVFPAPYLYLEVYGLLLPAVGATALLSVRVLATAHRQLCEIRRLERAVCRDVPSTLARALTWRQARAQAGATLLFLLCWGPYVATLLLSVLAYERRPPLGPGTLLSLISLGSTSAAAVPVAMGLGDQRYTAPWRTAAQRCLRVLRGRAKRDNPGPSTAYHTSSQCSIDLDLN
pEC50: −log10 of the molar value.
Observed Property: pEC50

> print(dat)
                                   compound  observed.measurement
1  CN1C(=O)C(C)(C)N(C(=O)COc2cccc3cnccc23)c2ccc(F)cc21                  7.60

a. CC(c1cc(C(F)(F)F)cc(C(F)(F)F)c1)N1Cc2c(-c3ccccc3F)ccnc2OCC1=O (stereo not drawn)
b. CC(c1cc(C(F)(F)F)cc(C(F)(F)F)c1)N1CCOc2nccc(-c3ccccc3)c2C1.Cl (stereo not drawn) [Compound D, hydrochloride]
# input Min pEC50? a | b Indicate which entry you chose by stating its label.
# output b
(b: 6.14, a: 7.60)
